Numbers sourced from PubChem BioAssay (NCI).

- Tested on: HCT-15 colon
- PROTOCOL: NCI-60 one-dose screen, 48 h
- RUN PARAMETERS: 10 µM
This is part of a sample that, as a whole, favours compounds with a hit. Of some 83,000 tested, about 20% had one in any assay. The source made the active and inactive calls. Rule for the calls: active = growth percent below 10; inactive = the rest.
The reply should name one outcome from y = active, n = inactive

molecule=Cc1cc(O)ccc1C1=NN(c2ccc(S(C)(=O)=O)cc2)C(=O)CC1 cat=n
molecule=COc1cc2c(Nc3ccc(S(N)(=O)=O)cc3)ncnc2c(OC)c1OC cat=n
molecule="CCCCN(CCCC)C(=O)[C@H](CC)[C@@H]1CC[C@@H](C)[C@@H]([C@H](C)[C@@H](O)[C@@H](C)C(=O)[C@H](CC)C2O[C@]3(C=CC(=O)[C@]4(CC[C@@](C)([C@H]5CC[C@](O)(CC)[C@H](C)O5)O4)O3)[C@H](C)C[C@@H]2C)O1 (stereo partly drawn)" cat=n
molecule="COc1ccc2c(c1)OC(N)=C(C#N)C2c1cc(OC)c(OC)c(OC)c1 (stereo not drawn)" cat=n
molecule=CCOC(=O)Cn1c(=O)c2sc3ncccc3c2n2nnc(-c3ccccc3)c12 cat=n

Dear colleague, could you share the recorded outcome for `NNC(=O)Oc1c(Cl)cc(Cl)cc1[N+](=O)[O-]` when you have a moment?
n

Called result for CC1/C=C/C=C/C=C/C=C/C=C/C=C/C=C/C(O[C@@H]2O[C@H](C)[C@H](O)[C@@H](O)[C@@H]2N)CC(O)C(C(=O)O)C(O)CC(=O)CC(O)CC(O)CC(O)CC(=O)CCCC(=O)CC(=O)OC1C(C)CC(C)C(O)CC(=O)c1ccc(N)cc1 (stereo partly drawn)
y

Returns: the outcome recorded for `COc1cc2c3c(n([C@H]4CCOC4)c(=O)c2cc1OC)-c1cc2c(cc1C3=O)OCO2` in this assay.
n
